Molecular target: Full length UFC1, residues 1–167 (UniProt Q9Y3C8)
Assay: ITC; VP-ITC, 25 °C; UBA5 peptides (~400 µM) titrated into 20–25 µM binding partner; 25 mM HEPES pH 7.5, 100 mM NaCl; one-site model; a single profile for each interaction
pKd: −log10 of the molar value.
Test Readout: pKd

INSERT INTO assay_data (binder, test_readout, quantitative_readout) VALUES
  ('GAMEDSGESLEDLMAKMKNM [UBA5 C-terminal region R3, residues 388–404]', 'pKd', 5.00);
